Just for reference, patent US20060093577A1 is where these values come from.

assay.remarks: in vitro
experimental.conditions: bovine
Measured CC50 values are reported for all entries that follow.
measurement.type: CC50

O[C@H]1[C@H](O)[C@@H](O)CN2CC[C@H](O)[C@H]12 [Castanospermine]    > 1000 µM
NC(=O)c1ncn([C@@H]2O[C@H](CO)[C@@H](O)[C@H]2O)n1 [Ribavirin, reference compound]    57 µM

###

assay.remarks: CC50 in plaque reduction assay table (Example 3)
Type: cell-based
experimental.conditions: bovine, MDBK cells; Table 3; read-out: CC50
measurement.type: CC50

NC(=O)c1ncn([C@@H]2O[C@H](CO)[C@@H](O)[C@H]2O)n1 [Ribavirin, reference compound]    250 µM
